The measurements presented in this section are drawn from patent US20260176378A1.

Target: T1, human plasma kallikrein (human, UniProt P03952 20-390; P03952 391-638)
T1 construct: two disulfide-linked chains; NP_000883.2; also called pKal; hpKal
T1 sequence (P03952 20-390 limits assumed, chain 1 of 2): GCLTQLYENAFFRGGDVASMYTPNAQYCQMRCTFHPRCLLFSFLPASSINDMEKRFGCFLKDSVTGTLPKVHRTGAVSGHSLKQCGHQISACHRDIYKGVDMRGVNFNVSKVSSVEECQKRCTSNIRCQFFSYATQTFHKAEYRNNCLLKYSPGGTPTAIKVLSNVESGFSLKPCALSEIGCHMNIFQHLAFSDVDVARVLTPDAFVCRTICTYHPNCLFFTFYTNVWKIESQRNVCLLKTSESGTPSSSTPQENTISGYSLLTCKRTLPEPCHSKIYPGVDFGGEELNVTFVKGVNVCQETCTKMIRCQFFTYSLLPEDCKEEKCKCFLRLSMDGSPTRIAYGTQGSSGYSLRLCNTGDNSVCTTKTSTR
T1 sequence (P03952 391-638 limits assumed, chain 2 of 2): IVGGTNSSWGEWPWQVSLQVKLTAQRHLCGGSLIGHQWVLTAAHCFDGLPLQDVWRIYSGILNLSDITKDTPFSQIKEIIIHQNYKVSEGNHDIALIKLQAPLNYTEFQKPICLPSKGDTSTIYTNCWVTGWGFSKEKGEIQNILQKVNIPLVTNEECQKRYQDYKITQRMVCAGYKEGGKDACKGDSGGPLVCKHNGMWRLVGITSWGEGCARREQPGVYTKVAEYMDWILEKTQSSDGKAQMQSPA
Experiment: ELISA, biotinylated pKal signal over streptavidin background
reported.endpoint: ELISA (T/B)

M41-A11 (Fab, V domains shown) VH: EVQLLESGGGLVQPGGSLRLSCAASGFTFSHYRMSWVRQAPGKGLEWVSSIYPSGGRTVYADSVKGRFTISRDNSKNTLYLQMNSLRAEDTAVYYCAKDKFEWRLLFRGIGNDAFDIWGQGTMVTVSS VL: QSVLTQPPSVSVSPGQTASITCSGDKLGDKYTSWYQQRPGQSPVLVIYQDIKRPSGIPERFSGSNSGNTATLTISGTQAMDEADYYCQAWDSPNARVFGSGTKVTVL    28

Query: Quickly give me recorded ELISA (T/B) for M76-D01 (Fab, V domains shown) VH: EVQLLESGGGLVQPGGSLRLSCAASGFTFSFYAMHWVRQAPGKGLEWVSGIVPSGGRTHYADSVKGRFTISRDNSKNTLYLQMNSLRAEDTAVYYCATDSSGSPNPLFDYWGQGTLVTVSS VL: DIVMTQTPPSLPVNPGEPASISCRSSQSLSDDGNTYLDWYLQRPGQSPQLLIHTLSYRASGVPDRFSGSGSGTDFTLKISRVEAEDVGVYYCMQGTHWPPTFGQGTKVEIK
Result: 11.2

Query: Quickly give me recorded ELISA (T/B) for M29-E09 (Fab, V domains shown) VH: EVQLLESGGGLVQPGGSLRLSCAASGFTFSWYEMGWVRQAPGKGLEWVSSIYSSGGGTMYADSVKGRFTISRDNSKNTLYLQMNSLRAEDTAVYYCARNPQYSGYDRSLSDGAFDIWGQGTMVTVSS VL: QYELTQPPSVSVSPGQTATITCSGDNLGNKYNSWYQQKPGQSPLLVIYQDTKRPSAIPERFSGSNSGNTATLTISGTQAMDEADYYCQAWDGNVVFGGGTKLTVL
Result: 28.8

Query: Quickly give me recorded ELISA (T/B) for M160-G12 (antibody, V domains shown, phage-derived Fab; also called R84-D02) VH: EVQLLESGGGLVQPGGSLRLSCAASGFTFSHYLMTWVRQAPGKGLEWVSYISPSGGHTIYADSVKGRFTISRDNSKNTLYLQMNSLRAEDTAVYYCARVARGIAARSRTSYFDYWGQGTLVTVSS VL: DIQMTQSPSFLSASVGDRVTITCRASQGISSYLAWYQQKPGKAPKLLIYAASTLQSGVPSRFSGSGSGTEFTLTISSLQPEDFATYYCQQLNSYPLTFGGGTKVEIK
Result: 38.3
